Test system: Fibroblast
ASSAY INFO: Multiplex assay against human fibroblast
Format: toxicity, cell-based
COND: 24 h, 10 µM, compound concentration 10 uM, replicate 1
OBSERVATION TYPE: Population Membrane Permeable-Phenotype (%)
Hi! Could you send only the number? It should be in %, unit omitted.

Q: Output Population Membrane Permeable-Phenotype (%) of `Cc1c(CC(=O)O)c2cccnc2n1Cc1ccc(S(C)(=O)=O)cc1C(F)(F)F`
Result: 1

Q: Given the compound `CCCOc1ccc2[nH]cc(C3=CCNCC3)c2n1.Cl` , write its reported Population Membrane Permeable-Phenotype (%).
Result: 0

====

Items are presented alongside their recorded Population Mitochondria Different-Phenotype (%).
Tested on: U2OS
ASSAY INFO: Multiplex assay against U2OS
Assay type: toxicity, cell-based
COND: human, 24 h, 10 µM, compound concentration 10 uM, replicate 2
Please give a number only; it is taken to be in %.

| COMPOUND | SUBJECT OF TEST | REPORTED |
| --- | --- | --- |
| CC(=O)Nc1cccc2c1c(Sc1ccc(Cl)cc1)c(C)n2CC(=O)O | U2OS | 4 |
| CN(C)C(=O)Cn1cc(-c2ccc(-c3cncc4ccccc34)cc2)cn1 | U2OS | 15 |
| C[C@H](N)COC(=O)[C@@H](CCCCN)NC(=O)Cc1c(-c2ccc3ccccc3c2)[nH]c2c1ccc1ccccc12 | U2OS | 3 |
| CCCCCC(O)/C=C/[C@H]1C(=O)CC(O)C1C/C=C\CCCC(=O)O (stereo partly drawn) | U2OS | 1 |
| CC(C)c1noc(N2CCC(COc3ccc(-c4ccc(S(C)(=O)=O)cc4)nc3)CC2)n1 | U2OS | 5 |

Q: Print U2OS Population Mitochondria Different-Phenotype (%) for COC[C@@H](c1ccc(C(F)(F)F)cc1)N1CCN(C2(C)CCN(C(=O)c3c(C)ncnc3C)CC2)C[C@@H]1C.O=C(O)/C=C\C(=O)O [VICRIVIROC MALEATE] .
Result: 2

Q: State recorded Population Mitochondria Different-Phenotype (%) with U2OS, entry Br.CS(=O)(=O)Nc1c(O)ccc2c1CCCC2C1=NCCN1 (stereo not drawn) , no comment.
Result: 4

Q: // fetch Population Mitochondria Different-Phenotype (%); item: `CN[C@@H](C)C(=O)N[C@H](C(=O)N1CCC[C@H]1C(=O)Nc1snnc1-c1ccccc1)C1CCCCC1` ; system: U2OS
Result: 65

====

Below: a set of entries, each annotated with reported Population Pyknosed Nuclei (%).
Tested on: U2OS
ASSAY INFO: Multiplex assay against U2OS
Format: toxicity, cell-based
COND: human, 12 h, 1 µM, compound concentration 1 uM, replicate 2
The figure you give is taken to be in %; do not add the unit.

Past entries and their recorded results:
| COMPOUND | OBSERVATION TYPE | U | REPORTED |
| --- | --- | --- | --- |
| CC(C)c1noc(N2CCC(COc3ccc(-c4ccc(S(C)(=O)=O)cc4)nc3)CC2)n1 [GSK-1292263] | Population Pyknosed Nuclei (%) | % | 5 |
| Cl.N=C(N)NC(=O)Cc1c(Cl)cccc1Cl [GUANFACINE HYDROCHLORIDE] | Population Pyknosed Nuclei (%) | % | 7 |
| CC(/C=C1\SC(=S)N(CCCC(=O)Nc2ccc(C(=O)O)c(O)c2)C1=O)=C\c1ccccc1 | Population Pyknosed Nuclei (%) | % | 7 |
| CC(C)(C)c1cc(NC(=O)Nc2ccc(-c3cn4c(n3)sc3cc(OCCN5CCOCC5)ccc34)cc2)no1 [QUIZARTINIB] | Population Pyknosed Nuclei (%) | % | 11 |
| NCCc1cn(S(=O)(=O)c2c(Cl)nc3sccn23)c2ccccc12.O=C(O)C(=O)O | Population Pyknosed Nuclei (%) | % | 9 |
| CCCOc1ccc2[nH]cc(C3=CCNCC3)c2n1.Cl | Population Pyknosed Nuclei (%) | % | 8 |

Q: Quick one: give measured Population Pyknosed Nuclei (%) for CC(C)COc1ccc(CNC(=O)N(Cc2ccc(F)cc2)C2CCN(C)CC2)cc1 [PIMAVANSERIN]
Result: 7

Q: Look up Population Pyknosed Nuclei (%) of `CCCCC(=O)N(Cc1ccc(-c2ccccc2-c2nnn[nH]2)cc1)[C@H](C(=O)O)C(C)C` and report it.
Result: 4

Q: Supply reported Population Pyknosed Nuclei (%) belonging to this compound: `CN1CCN(c2cc(-c3ccccc3)nc(N)n2)CC1`
Result: 5
